Catalogue of compounds with associated hERG current change (%, negative = inhibition) at 10uM
target: human ether-à-go-go-related gene (hERG) potassium channel (human); test: primary screen, population patch clamp on CHO cells stably expressing hERG; higher = less effect of the substance
Out of some 310,000 compounds screened, about 14,000 (4.5%) showed an effect of 50% or more. Effects have a minus sign here. Only a selection was taken, and strong results are over-represented in it overall.
Quick note: give the figure in %, leave out the unit.

Solved cases below.
| compound | unit abbrev | value reported |
| --- | --- | --- |
| O=C(NCCc1ccccc1)/C(=C\c1ccc([N+](=O)[O-])cc1)NC(=O)c1ccccc1 | % | -14.6 |
| O=C(NCCc1ccccc1)/C(=C\c1ccccc1)NC(=O)c1ccco1 | % | -21.4 |
| CSC1=N/C(=C\c2ccc3c(c2)OCO3)C(=O)S1 | % | 12.3 |
| O=C(Nc1ccccc1)/C(=C/c1ccc([N+](=O)[O-])cc1)NC(=O)c1ccco1 | % | 6.42 |
| O=C(NCc1ccccc1)/C(=C\c1ccc([N+](=O)[O-])cc1)NC(=O)c1ccco1 | % | -60.9 |
| O=C(NCc1ccccc1)/C(=C/c1ccccc1)NC(=O)c1ccco1 | % | -24.6 |
| COc1ccc(NC(=O)/C(=C\c2ccccc2)NC(=O)c2ccco2)cc1 | % | 0.0276 |
| O=C(NC(Cc1ccccc1)C(=O)O)/C(=C/c1ccc([N+](=O)[O-])cc1)NC(=O)c1ccco1 (stereo not drawn) | % | 12.6 |

Lab note: next compound to report on.
stdin: What measured hERG current change (%, negative = inhibition) at 10uM goes with `Cc1cc(NC(=O)CSCC(=O)N(C)Cc2ccc(Cl)c(Cl)c2)no1` ?
stdout: -9.94

---

Catalogue of compounds with associated hERG current change (%, negative = inhibition) at 10uM
target: human ether-à-go-go-related gene (hERG) potassium channel (human, UniProt Q12809); assay: primary screen, population patch clamp on CHO cells stably expressing hERG; higher = less effect of the substance
Sequence (Q12809 whole entry, looked up): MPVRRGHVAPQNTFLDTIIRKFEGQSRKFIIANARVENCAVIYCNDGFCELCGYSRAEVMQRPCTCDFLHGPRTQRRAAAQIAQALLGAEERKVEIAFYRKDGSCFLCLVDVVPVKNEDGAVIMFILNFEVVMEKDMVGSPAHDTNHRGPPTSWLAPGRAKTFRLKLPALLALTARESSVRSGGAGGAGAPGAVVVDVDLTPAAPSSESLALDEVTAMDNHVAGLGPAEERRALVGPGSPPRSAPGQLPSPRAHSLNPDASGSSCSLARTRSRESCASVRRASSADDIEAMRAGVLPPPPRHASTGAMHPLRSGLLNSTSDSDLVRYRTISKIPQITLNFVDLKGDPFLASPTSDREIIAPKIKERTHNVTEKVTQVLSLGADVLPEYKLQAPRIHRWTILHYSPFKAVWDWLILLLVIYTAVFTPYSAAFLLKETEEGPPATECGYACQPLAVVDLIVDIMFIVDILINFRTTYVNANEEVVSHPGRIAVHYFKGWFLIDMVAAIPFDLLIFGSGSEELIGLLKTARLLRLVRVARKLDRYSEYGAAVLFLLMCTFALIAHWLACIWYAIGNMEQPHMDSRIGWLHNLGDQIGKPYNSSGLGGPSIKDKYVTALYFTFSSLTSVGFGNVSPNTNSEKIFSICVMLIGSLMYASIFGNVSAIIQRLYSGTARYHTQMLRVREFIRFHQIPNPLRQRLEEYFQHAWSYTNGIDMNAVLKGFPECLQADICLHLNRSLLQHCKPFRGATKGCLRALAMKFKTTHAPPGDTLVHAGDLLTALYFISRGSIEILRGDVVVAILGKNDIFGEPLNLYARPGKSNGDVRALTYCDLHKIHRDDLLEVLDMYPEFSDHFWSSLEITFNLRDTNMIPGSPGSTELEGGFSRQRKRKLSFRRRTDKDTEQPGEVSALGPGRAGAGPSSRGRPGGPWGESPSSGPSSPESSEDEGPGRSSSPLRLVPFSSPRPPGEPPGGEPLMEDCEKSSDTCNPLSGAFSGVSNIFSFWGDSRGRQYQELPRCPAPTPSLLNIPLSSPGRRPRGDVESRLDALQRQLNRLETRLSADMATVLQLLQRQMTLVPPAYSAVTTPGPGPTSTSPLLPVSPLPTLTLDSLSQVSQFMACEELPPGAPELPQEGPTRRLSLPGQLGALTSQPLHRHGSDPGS
Screen size: about 310,000 compounds; about 14,000 (4.5%) showed an effect of 50% or more. The effect is printed as a negative number. The list comes from a sample in which strong results are over-represented; it also holds close analogues and randomly drawn compounds.
Report field: quantity (unit follows the number).

Solved cases below.
| compound string | assayed system | value reported |
| --- | --- | --- |
| COc1ccc(N2CCN(c3oc(-c4ccco4)nc3C#N)CC2)cc1 | human ether-à-go-go-related gene (hERG) potassium channel (human, UniProt Q12809) | -47.9% |
| Cc1cc(C)n(Cc2ccc(C(=O)O)o2)n1 | human ether-à-go-go-related gene (hERG) potassium channel (human, UniProt Q12809) | 11.5% |

stdin: What measured hERG current change (%, negative = inhibition) at 10uM goes with `Cc1c(Cl)cccc1N1CC(C)(C)C1=O` ?
stdout: -2.95%

stdin: And the next one, `O=C(NC1(C(=O)NC2CCCCC2)CCCCC1)c1ccccn1` ?
stdout: 2.56%

stdin: And the next one, `N#Cc1nc(-c2ccccc2)oc1N1CCN(C(=O)c2ccco2)CC1` ?
stdout: -75.7%

stdin: And the next one, `COc1cccc(OCCOCCNCCO)c1` ?
stdout: -6.7%

stdin: And the next one, `CCCc1ccc(Oc2cc(N3CCOCC3)nc(-c3ccccc3)n2)cc1` ?
stdout: 21.5%

stdin: And the next one, `COc1cccc(-c2nc(C#N)c(N3CCN(C(=O)c4ccco4)CC3)o2)c1` ?
stdout: -35.1%

---

molecular target: human ether-à-go-go-related gene (hERG) potassium channel (human, UniProt Q12809); experiment: primary screen, population patch clamp on CHO cells stably expressing hERG; higher = less effect of the substance;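 note: peak tail current of the secondary pulse compared with the same well before compound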
About 14,000 (4.5%) of roughly 310,000 compounds showed an effect of 50% or more. The effect is printed as a negative number. Many of the other results were omitted from the sample, so strong results are more common in it than they were.
Catalogue of molecules with associated hERG current change (%, negative = inhibition) at 10uM
Quick note: give the figure in %, leave out the unit.

Solved cases below.
| compound string | value reported |
| --- | --- |
| O=C(NCc1ccc(-c2nc3ccccc3s2)cc1)c1cc2ccccc2o1 | -1.71 |
| COc1ccc(S(=O)(=O)NCC(=O)N(CC(=O)NCc2ccco2)Cc2ccccc2)cc1 | -10.6 |
| O=C(CN(Cc1ccco1)C(=O)CNS(=O)(=O)c1ccc(F)cc1)NCc1ccco1 | -8.87 |
| COc1ccc(CNC(=O)CN(Cc2ccco2)C(=O)CNS(=O)(=O)c2ccc(C)cc2)cc1 | -73 |
| O=C(CN(Cc1ccccc1)C(=O)CNS(=O)(=O)c1ccccc1)NCc1ccco1 | -0.255 |
| Cc1cnc(C(=O)Nc2cc(S(=O)(=O)N3CCOCC3)ccc2N2CCN(C)CC2)cn1 | -18.6 |
| O=C(CN(Cc1ccco1)C(=O)CNS(=O)(=O)c1ccc(Cl)cc1)NCc1ccco1 | -55.4 |

Lab note: next molecule to report on.
stdin: What measured hERG current change (%, negative = inhibition) at 10uM goes with `COc1ccc(CCNC(=O)CSc2ccc3nnc(CCNC(=O)c4ccccc4)n3n2)cc1OC` ?
stdout: 6.1

---

Target: human ether-à-go-go-related gene (hERG) potassium channel (human, UniProt Q12809);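 note: peak tail current of the secondary pulse compared with the same well before compound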
Experiment: primary screen, population patch clamp on CHO cells stably expressing hERG; higher = less effect of the substance
Description: Briefly, Chinese hamster ovary (CHO) cells stably expressing the hERG channel were dislodged from tissue culture flasks and dispensed into PPC plates. […] During the recording, background leak currents were estimated by a 100 ms step to -80 mV from an initial holding potential of -70 mV and subtracted from the subsequent current measurement. The campaign was conducted in two phases using slight differences in recording protocol. […]
The campaign covered roughly 310,000 compounds. About 14,000 (4.5%) showed an effect of 50% or more. The effect is printed as a negative number. This excerpt belongs to a sample that is enriched for strong results.
Decide using hERG current change (%, negative = inhibition) at 10uM: a value greater than or equal to -60% is satisfied, a smaller one is not satisfied.

| compound | assayed system | label class |
| --- | --- | --- |
| O=C(c1ccc(Cl)cc1)C1CCCN(Cc2cccc3cnccc23)C1 (centres unmarked) | human ether-à-go-go-related gene (hERG) potassium channel (human, UniProt Q12809) | satisfied |
| O=C(c1ccc(Cl)cc1)C1CCCN(Cc2ccc3ncccc3c2)C1 (centres unmarked) | human ether-à-go-go-related gene (hERG) potassium channel (human, UniProt Q12809) | not satisfied |
| O=C(c1ccccn1)N1CCCC(N2CCN(c3ccc(F)cc3)CC2)C1 (centres unmarked) | human ether-à-go-go-related gene (hERG) potassium channel (human, UniProt Q12809) | satisfied |
| O=C(c1ccc(Cl)cc1)C1CCCN(Cc2cccc3cccnc23)C1 (centres unmarked) | human ether-à-go-go-related gene (hERG) potassium channel (human, UniProt Q12809) | not satisfied |

# next compound below
stdin: Can `COc1ccc(/C=N/NC(=O)CC(=O)NCc2cccnc2)c(OC)c1` be said to have hERG current change (%, negative = inhibition) at 10uM at or above -60%?
stdout: satisfied

---

Target: human ether-à-go-go-related gene (hERG) potassium channel (human);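 note: peak tail current of the secondary pulse compared with the same well before compound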
Assay: primary screen, population patch clamp on CHO cells stably expressing hERG; higher = less effect of the substance
Description: Briefly, Chinese hamster ovary (CHO) cells stably expressing the hERG channel were dislodged from tissue culture flasks and dispensed into PPC plates. […] During the recording, background leak currents were estimated by a 100 ms step to -80 mV from an initial holding potential of -70 mV and subtracted from the subsequent current measurement. The campaign was conducted in two phases using slight differences in recording protocol. […]
Screen size: about 310,000 compounds; about 14,000 (4.5%) showed an effect of 50% or more. The effect is printed as a negative number. Many of the other results were omitted from the sample, so strong results are more common in it than they were.
Catalogue of molecules with associated hERG current change (%, negative = inhibition) at 10uM
Quick note: give the figure in %, leave out the unit.

Solved cases below.
| molecule | value reported |
| --- | --- |
| O=C1NC(c2ccccc2)=C(c2ccc3ccccc3n2)C(c2ccccc2)N1 (stereo not shown) | 6.13 |
| Cc1ccc(C(=O)CCC(=O)Nc2cccc(C)c2)cc1 | 15.3 |
| Cn1c(=O)n(C)c2cc(NC(=O)COc3ccc(F)cc3F)ccc21 | -13.6 |
| CCCCCn1c(NC2CCCCC2)nc2c1c(=O)[nH]c(=O)n2C | -17.6 |
| CCOC(=O)C1=C(c2ccccc2)N=C2SCC(=O)N2C1c1ccc(OCC)c(OCC)c1 (stereo not shown) | 6.45 |
| CCCCN(C(=O)c1cc(CC)c(C)s1)c1c(N)n(CCC)c(=O)[nH]c1=O | -20.8 |
| CCn1c(NCc2ccco2)nc2c1c(=O)n(C)c(=O)n2C | -10.7 |
| CCc1nnc(NS(=O)(=O)c2ccc(N=Cc3c(C)[nH]n(-c4ccc(Cl)cc4)c3=O)cc2)s1 | 17.7 |
| CC1CCCN(c2c3c(nc4ccccc24)CCCC3)C1 (stereo not shown) | -65.2 |

stdin: # value lookup — system human ether-à-go-go-related gene (hERG) potassium channel (human), readout hERG current change (%, negative = inhibition) at 10uM, item `Cc1ccc2oc(/N=C(\N)NC(=O)C(C)(C)C)nc2c1`;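 note: peak tail current of the secondary pulse compared with the same well before compound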
stdout: 4.85
